The values you see were collected from patent US8569311B2.

system-name: OX1R (Rattus norvegicus)
Sequence (P56718 whole entry, looked up): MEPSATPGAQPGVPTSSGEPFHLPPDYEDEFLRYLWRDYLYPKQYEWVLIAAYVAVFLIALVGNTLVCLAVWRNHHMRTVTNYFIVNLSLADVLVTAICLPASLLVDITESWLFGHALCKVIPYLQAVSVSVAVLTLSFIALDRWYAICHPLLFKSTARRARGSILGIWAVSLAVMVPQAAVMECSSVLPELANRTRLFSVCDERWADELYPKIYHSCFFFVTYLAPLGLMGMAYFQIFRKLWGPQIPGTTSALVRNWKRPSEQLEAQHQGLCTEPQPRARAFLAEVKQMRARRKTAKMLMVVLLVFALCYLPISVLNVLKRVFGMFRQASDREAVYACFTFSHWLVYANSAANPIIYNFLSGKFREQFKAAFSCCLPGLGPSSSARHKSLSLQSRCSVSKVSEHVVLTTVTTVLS
// map Ki onto a label; ranges low band: < 3 nM; middle band: ≥ 3 nM and < 80 nM; high band: ≥ 80 nM

Worked examples follow.
{"compound": "C[C@@H]1CC[C@@H](COc2ccnc(Cl)c2)CN1C(=O)c1ccccc1-n1nccn1 [Compound 1-43]", "discrete-label": "high band"}
{"compound": "Cc1ccc(-c2cnccn2)c(C(=O)N2C[C@H](COc3ccc(F)cn3)CC[C@H]2C)c1 [Compound B-3]", "discrete-label": "middle band"}
{"compound": "Cc1ccc(-c2cn[nH]c2)c(C(=O)N2C[C@H](COc3ccc(F)cn3)CC[C@H]2C)c1 [Compound 1-21]", "discrete-label": "middle band"}
{"compound": "C[C@@H]1CC[C@@H](COc2ccc(F)cn2)CN1C(=O)c1ccccc1-n1cccn1 [Compound 1-37]", "discrete-label": "middle band"}
{"compound": "Cc1ccc(-c2ccccc2)c(C(=O)N2C[C@H](COc3ccc(F)cn3)CC[C@H]2C)c1 [Compound 1-10]", "discrete-label": "low band"}
{"compound": "C[C@@H]1CC[C@@H](COc2ccc(F)cn2)CN1C(=O)c1ncccc1-c1ccccc1 [Compound 1-38]", "discrete-label": "high band"}

The entry to classify is C[C@@H]1CC[C@@H](COc2ccc(F)cn2)CN1C(=O)c1cccc2cc[nH]c12 [Compound 1-27] ; which class holds it?
middle band

The entry to classify is Cc1ccc(-n2nccn2)c(C(=O)N2CCCC(COc3ccc(F)nc3)C2)c1 (stereo not shown) [Compound 2-1] ; which class holds it?
high band

The entry to classify is Cc1ccc(-c2ccccn2)c(C(=O)N2C[C@H](COc3ccc(F)cn3)CC[C@H]2C)c1 [Compound 1-15] ; which class holds it?
middle band

The entry to classify is Cc1ccc(-c2ncccn2)c(C(=O)N2C[C@H](COc3ccc(F)cn3)CC[C@H]2C)c1 [Compound E-5] ; which class holds it?
low band
